Ref: patent US5939279A

Test system: HT-29 cells
Assay: Adhesion of E. cloacae to HT-29 cells grown in the presence of N-linked glycoprotein processing inhibitors
Type: cell-based
Details: inhibitor 25 μg/ml in culture medium; average of three sets of experiments
Readout label: Adhesion (cpm)

In [3]: df
Out[3]:
                                   compound   readout_label     reading
0  O[C@H]1[C@H](O)[C@@H](O)CN2CC[C@H](O)[C@H]12 [Castanospermine]  Adhesion (cpm)  13,973 cpm

# input compound: O[C@H]1[C@H]2[C@H](O)CCCN2C[C@H]1O [Swainsonine] ; wanted: its Adhesion (cpm)
13,857 cpm

# input compound: O=C1N[C@@H]2[C@@H](O)[C@@H](O)[C@H](O)[C@@H](CO)N2C1=O [Kifunensine] ; wanted: its Adhesion (cpm)
20,414 cpm

# input compound: OC[C@H]1NC[C@@H](O)[C@@H](O)[C@@H]1O [Deoxymannojirimycin] ; wanted: its Adhesion (cpm)
20,180 cpm

====

System: HT-29 cells
Assay: Adhesion of E. cloacae to HT-29 cells grown in the presence of N-linked glycoprotein processing inhibitors
Assay type: cell-based
Details: inhibitor 5 μg/ml in culture medium; average of three sets of experiments
// values below are reported Adhesion (cpm)

Some entries whose results are on file:
In [3]: df
Out[3]:
                            compound_string     reading
0  O=C1N[C@@H]2[C@@H](O)[C@@H](O)[C@H](O)[C@@H](CO)N2C1=O  20,161 cpm
1        O[C@H]1[C@H]2[C@H](O)CCCN2C[C@H]1O  14,577 cpm
2  O[C@H]1[C@H](O)[C@@H](O)CN2CC[C@H](O)[C@H]12  12,410 cpm

# input molecule: `OC[C@H]1NC[C@@H](O)[C@@H](O)[C@@H]1O` ; wanted: its Adhesion (cpm)
18,630 cpm
